- ASSAY PROCEDURE: physchem
- Type: physicochemical
- APPLIED CONDITIONS: 24 °C; water at 24±3° C.
MEASUREMENT NAME: solubility

Item under review: CCC[C@H](Nc1nc(-c2ccc(NC(=O)NCC)c(OC)c2)ncc1C)c1cccnc1.CS(=O)(=O)O.CS(=O)(=O)O [di-methanesulfonate salt] . Reported solubility?
> 2100 µg/mL

Item under review: CCC[C@H](Nc1nc(-c2ccc(NC(=O)NCC)c(OC)c2)ncc1C)c1cccnc1.O=C(O)C(O)C(O)C(=O)O [tartrate salt] . Reported solubility?
> 2100 µg/mL

Item under review: CCC[C@H](Nc1nc(-c2ccc(NC(=O)NCC)c(OC)c2)ncc1C)c1cccnc1.O=C(O)C(=O)O [mono-oxalate salt] . Reported solubility?
> 2100 µg/mL

Item under review: CCC[C@H](Nc1nc(-c2ccc(NC(=O)NCC)c(OC)c2)ncc1C)c1cccnc1.Cl.Cl [dihydrochloride salt] . Reported solubility?
> 2100 µg/mL

Item under review: CCC[C@H](Nc1nc(-c2ccc(NC(=O)NCC)c(OC)c2)ncc1C)c1cccnc1.O=C(O)CC(O)(CC(=O)O)C(=O)O [citrate salt] . Reported solubility?
> 2100 µg/mL
